system: bermudagrass; experiment: Test C pre-/postemergence test; type: in vivo, Cynodon dactylon; details: 62 g ai/ha, preemergence; scale 0 (no effect) to 100 (complete control)
MEASUREMENT TYPE: Bermudagrass plant response rating
Answer field: number only, no words.

Ask | Can you look up the measured Bermudagrass plant response rating of Cn1nc(C(F)(F)F)c(C[S+]([O-])c2ccc(Br)c[n+]2[O-])c1OC(F)F (racemic) for me?
Reply | 98

Ask | Follow-up item: Cc1cc[n+]([O-])c(S(=O)(=O)C(C)c2c(C(F)(F)F)nn(C)c2Cl)c1 (racemic)
Reply | 100

Ask | Follow-up item: Cc1cc[n+]([O-])c([S+]([O-])Cc2c(C(F)(F)F)nn(C)c2OC(F)F)c1 (stereo not drawn)
Reply | 90

Ask | Follow-up item: Cn1nc(C(F)(F)F)c(CS(=O)(=O)c2cccc[n+]2[O-])c1OC(F)F
Reply | 100

Ask | Follow-up item: Cc1cc[n+]([O-])c(S(=O)(=O)C(C)c2c(C(F)(F)F)nn(C)c2OC(F)F)c1 (stereo not drawn)
Reply | 100

Ask | Follow-up item: Cn1nc(C(F)(F)F)c(C[S+]([O-])c2cccc[n+]2[O-])c1OC(F)F (stereo not drawn)
Reply | 100

###

system: dallisgrass; assay: Test F preemergence test; assay type: in vivo, Paspalum dilatatum; details: Preemergence; 31 g ai/ha; scale 0 to 100
Please enter Met where Plant response rating, Dallisgrass is greater than or equal to 50, and Not met where it is lower.

Ask | Could you tell me if the measured Plant response rating, Dallisgrass of Cn1nc(C(F)(F)F)c(CS(=O)(=O)c2cccc[n+]2[O-])c1OCC(F)(F)F reaches 50 or more?
Reply | Met

Ask | Follow-up item: Cn1nc(C(F)(F)F)c(CS(=O)(=O)c2cccc[n+]2[O-])c1OC(F)F
Reply | Not met

Ask | Follow-up item: Cn1nc(C(F)(F)F)c(C[S+]([O-])c2cccc[n+]2[O-])c1OC(F)F (stereo not drawn)
Reply | Met

Ask | Follow-up item: CC(c1c(C(F)(F)F)nn(C)c1OC(F)F)S(=O)(=O)c1cccc[n+]1[O-] (stereo not drawn)
Reply | Met

Ask | Follow-up item: CC(c1c(C(F)(F)F)nn(C)c1OCC(F)(F)F)S(=O)(=O)c1cccc[n+]1[O-] (racemic)
Reply | Met

Ask | Follow-up item: Cc1cc([S+]([O-])Cc2c(C(F)(F)F)nn(C)c2OCC(F)(F)F)[n+]([O-])cc1Cl (stereo not drawn)
Reply | Not met

Ask | Follow-up item: Cn1nc(C(F)(F)F)c(C[S+]([O-])c2cccc[n+]2[O-])c1OCC(F)(F)F (racemic)
Reply | Not met

###

test system: common ragweed; assay: Test C pre-/postemergence test; type: in vivo, Ambrosia elation; conditions: 31 g ai/ha, Preemergence; scale 0 to 100
So I've got a bunch of molecules here, and I need their Ragweed plant response rating values.
Answer field: number only, no words.

Ask | Can you look up the measured Ragweed plant response rating of Cn1nc(C(F)(F)F)c(CS(=O)(=O)c2cccc[n+]2[O-])c1OC(F)F for me?
Reply | 70

Ask | Follow-up item: Cn1nc(C(F)(F)F)c(C[S+]([O-])c2ccc(Br)c[n+]2[O-])c1OC(F)F (racemic)
Reply | 10

Ask | Follow-up item: CC(c1c(C(F)(F)F)nn(C)c1OC(F)F)S(=O)(=O)c1cccc[n+]1[O-] (stereo not drawn)
Reply | 85

Ask | Follow-up item: Cc1cc[n+]([O-])c(S(=O)(=O)Cc2c(C(F)(F)F)nn(C)c2OC(F)F)c1
Reply | 20

Ask | Follow-up item: Cn1nc(C(F)(F)F)c(C(Cl)S(=O)(=O)c2cccc[n+]2[O-])c1Cl (stereo not drawn)
Reply | 0

Ask | Follow-up item: Cc1cc[n+]([O-])c(S(=O)(=O)C(C)c2c(C(F)(F)F)nn(C)c2OC(F)F)c1 (stereo not drawn)
Reply | 55

###

So I've got a bunch of compounds here, and I need their Plant response rating, Goosegrass values.
system: goosegrass; assay: Test F preemergence test; type: in vivo, Eleusine indica; settings: Preemergence; 31 g ai/ha; scale 0 to 100
Answer field: number only, no words.

Ask | Can you look up the measured Plant response rating, Goosegrass of CC(c1c(C(F)(F)F)nn(C)c1OCC(F)(F)F)S(=O)(=O)c1cccc[n+]1[O-] (racemic) [Compound 33] for me?
Reply | 95

Ask | Follow-up item: CCn1nc(C(F)(F)F)c(CS(=O)(=O)c2cc(C)cc[n+]2[O-])c1OCC(F)(F)F [Compound 64]
Reply | 90

Ask | Follow-up item: Cc1cc[n+]([O-])c(S(=O)(=O)Cc2c(C(F)(F)F)nn(C)c2OC(F)F)c1 [Compound 2]
Reply | 90

Ask | Follow-up item: Cc1cc[n+]([O-])c(S(=O)(=O)C(Cl)c2c(C(F)(F)F)nn(C)c2Cl)c1 (racemic) [Compound 22]
Reply | 65

Ask | Follow-up item: CCn1nc(C(F)(F)F)c(C[S+]([O-])c2cc(C)cc[n+]2[O-])c1OCC(F)(F)F (racemic) [Compound 66]
Reply | 60

###

Test system: common purslane
Assay: Test F preemergence test
Type: in vivo, Portulaca oleracea
Conditions: Preemergence; 16 g ai/ha; scale 0 to 100
Source text: Seeds of plant species selected from bermudagrass (Cynodon dactylon), Surinam grass (Brachiaria decumbens), large crabgrass (Digitaria sanguinalis), green foxtail (Setaria viridis), goosegrass (Eleusine indica), johnsongrass (Sorghum halepense), kochia (Kochia scoparia), pitted morningglory (Ipomoea lacunosa), purple nutsedge (Cyperus rotundus), common ragweed (Ambrosia elation), mustard (Brassica nigra), guineagrass (Panicum maximum), […] […]
So I've got a bunch of compounds here, and I need their Plant response rating, Purslane values.

Ask | Can you look up the measured Plant response rating, Purslane of Cc1cc[n+]([O-])c([S+]([O-])Cc2c(C(F)(F)F)nn(C)c2OC(F)F)c1 (stereo not drawn) for me?
Reply | 35

Ask | Follow-up item: Cc1cc[n+]([O-])c([S+]([O-])Cc2c(C(F)(F)F)nn(C)c2Cl)c1 (racemic)
Reply | 15

Ask | Follow-up item: Cc1cc[n+]([O-])c(S(=O)(=O)C(Cl)c2c(C(F)(F)F)nn(C)c2Cl)c1 (racemic)
Reply | 0

Ask | Follow-up item: Cn1nc(C(F)(F)F)c(CS(=O)(=O)c2cccc[n+]2[O-])c1OC(F)F
Reply | 15

Ask | Follow-up item: Cn1nc(C(F)(F)F)c(CS(=O)(=O)c2cccc[n+]2[O-])c1OCC(F)(F)F
Reply | 0

Ask | Follow-up item: Cn1nc(C(F)(F)F)c(C[S+]([O-])c2cccc[n+]2[O-])c1Cl (stereo not drawn)
Reply | 0

###

So I've got a bunch of compounds here, and I need their Plant response rating (0 to 100), Soybean values.
system: soybean; test: Test C pre-/postemergence test; format: in vivo, Glycine max; details: Postemergence, 31 g ai/ha
Answer field: number only, no words.

Ask | Can you look up the measured Plant response rating (0 to 100), Soybean of Cc1cc[n+]([O-])c([S+]([O-])Cc2c(C(F)(F)F)nn(C)c2OC(F)F)c1 (stereo not shown) [Compound 1] for me?
Reply | 60

Ask | Follow-up item: Cn1nc(C(F)(F)F)c(C[S+]([O-])c2ccc(F)c[n+]2[O-])c1OC(F)F (stereo not shown) [Compound 58]
Reply | 20

Ask | Follow-up item: CCn1nc(C(F)(F)F)c(C(C)S(=O)(=O)c2cccc[n+]2[O-])c1OCC(F)(F)F (stereo not shown) [Compound 69]
Reply | 0

Ask | Follow-up item: Cn1nc(C(F)(F)F)c(C[S+]([O-])c2cccc[n+]2[O-])c1OC(F)F (stereo not shown) [Compound 3]
Reply | 40

###

tested on: canarygrass; experiment: Test C postemergence test; type: in vivo, Phalaris minor; conditions: 125 g ai/ha, scale 0 to 100, 0 no effect, 100 complete control
So I've got a bunch of molecules here, and I need their Plant response rating, Canarygrass values.
Answer field: number only, no words.

Ask | Can you look up the measured Plant response rating, Canarygrass of Cn1nc(C(F)(F)F)c(C[S+]([O-])c2ccc(Cl)c[n+]2[O-])c1OCC(F)(F)F (racemic) for me?
Reply | 0

Ask | Follow-up item: CCn1nc(C(F)(F)F)c(C[S+]([O-])c2cccc[n+]2[O-])c1OCC(F)(F)F (racemic)
Reply | 20

Ask | Follow-up item: Cn1nc(C(F)(F)F)c(C[S+]([O-])c2cccc[n+]2[O-])c1OCC(F)(F)C(F)(F)F (stereo not shown)
Reply | 0

Ask | Follow-up item: Cn1nc(C(F)(F)F)c(C[S+]([O-])c2cccc[n+]2[O-])c1OC(F)F (stereo not shown)
Reply | 0
